Entries with reported pKd on B. anthracis lumazine synthase (BaLS) (Bacillus anthracis)
Sequence (Q81MB5 whole entry, looked up): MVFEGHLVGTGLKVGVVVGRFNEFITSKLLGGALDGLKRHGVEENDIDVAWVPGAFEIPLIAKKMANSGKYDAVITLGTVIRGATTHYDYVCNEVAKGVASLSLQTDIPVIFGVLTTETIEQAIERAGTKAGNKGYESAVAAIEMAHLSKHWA
Please keep in mind that pKd is minus log10 of the molar concentration; only the number is needed.

>>> df
                           molecular_string  recorded_measurement
0  O=c1[nH]c(Cl)c(CCCCOP(=O)(O)O)c(=O)[nH]1                  5.76

Now, please, on to the next compound.
Measured pKd for this entry O=c1[nH]c(Cl)c(CCCCCP(=O)(O)O)c(=O)[nH]1 on B. anthracis lumazine synthase (BaLS) (Bacillus anthracis): 5.40

---

Entries with reported pKi on B. anthracis lumazine synthase (BaLS) (Bacillus anthracis)
Please keep in mind that pKi is minus log10 of the molar concentration; only the number is needed.

>>> print(df.to_string())
                           molecular_string  recorded_measurement
0  O=c1[nH]c(Cl)c(CCCCOP(=O)(O)O)c(=O)[nH]1                  7.64

Now, please, on to the next molecule.
Measured pKi for this entry O=c1[nH]c(Cl)c(CCCCCP(=O)(O)O)c(=O)[nH]1 on B. anthracis lumazine synthase (BaLS) (Bacillus anthracis): 6.37
